# measurement.target: T1, tail-chimeric peptide IhfA3-IhfB2NTHI (nontypeable Haemophilus influenzae …)
# T1 construct: also called IHF(NTHI) tail chimeric peptide; IHFNTHI tail chimeric peptide
# T1 peptide: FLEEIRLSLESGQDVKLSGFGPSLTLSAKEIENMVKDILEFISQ
# test.protocol: direct ELISA #2, peptide coated (curves reaching equilibrium)
Please respond with reported EC50 for every item in the list.
I only need the number, in µg/mL, no unit after it.

Bench note: what EC50 did humanized anti-tail monoclonal antibody, heavy chain SEQ ID NO: 6 and light chain SEQ ID NO: 11 (antibody, V domains shown, also called H10215 (11E7.C7 Humanized HC3) + L10214 (11E7.C7 Humanized LC2)) VH: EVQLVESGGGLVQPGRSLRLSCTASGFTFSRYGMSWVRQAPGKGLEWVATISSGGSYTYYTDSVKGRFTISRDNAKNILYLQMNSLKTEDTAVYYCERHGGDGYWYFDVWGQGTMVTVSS VL: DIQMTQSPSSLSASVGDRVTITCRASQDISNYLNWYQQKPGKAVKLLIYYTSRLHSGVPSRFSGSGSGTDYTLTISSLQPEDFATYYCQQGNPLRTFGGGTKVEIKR show?
0.028

Any idea what its EC50 is? The binder is humanized anti-tail monoclonal antibody, heavy chain SEQ ID NO: 5 and light chain SEQ ID NO: 10 (antibody, V domains shown, also called H10214 (11E7.C7 Humanized HC2) + L10213 (11E7.C7 Humanized LC1)) VH: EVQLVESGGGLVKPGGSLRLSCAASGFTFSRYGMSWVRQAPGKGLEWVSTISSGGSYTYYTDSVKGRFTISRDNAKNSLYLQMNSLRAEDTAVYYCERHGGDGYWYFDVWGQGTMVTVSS VL: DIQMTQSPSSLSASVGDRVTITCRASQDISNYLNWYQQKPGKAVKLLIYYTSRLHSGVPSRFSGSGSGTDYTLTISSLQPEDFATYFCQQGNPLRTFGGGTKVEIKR
0.0367

What value of EC50 has been recorded for this entry: humanized anti-tail monoclonal antibody, heavy chain SEQ ID NO: 4 and light chain SEQ ID NO: 12 (antibody, V domains shown, also called H10213 (11E7.C7 Humanized HC1) + L10215 (11E7.C7 Humanized LC3)) VH: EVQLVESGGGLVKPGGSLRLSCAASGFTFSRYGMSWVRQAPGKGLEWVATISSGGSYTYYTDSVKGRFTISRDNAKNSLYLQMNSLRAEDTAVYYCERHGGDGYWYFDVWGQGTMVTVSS VL: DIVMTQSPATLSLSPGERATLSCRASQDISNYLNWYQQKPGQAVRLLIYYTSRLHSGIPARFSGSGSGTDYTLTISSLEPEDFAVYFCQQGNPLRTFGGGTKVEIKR
0.0404

Fill blank: measured EC50 of the binder humanized anti-tail monoclonal antibody, heavy chain SEQ ID NO: 6 and light chain SEQ ID NO: 10 (antibody, V domains shown, also called H10215 (11E7.C7 Humanized HC3) + L10213 (11E7.C7 Humanized LC1)) VH: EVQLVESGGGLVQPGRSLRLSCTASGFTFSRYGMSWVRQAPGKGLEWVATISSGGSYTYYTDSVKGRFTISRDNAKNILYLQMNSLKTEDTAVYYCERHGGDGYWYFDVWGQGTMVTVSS VL: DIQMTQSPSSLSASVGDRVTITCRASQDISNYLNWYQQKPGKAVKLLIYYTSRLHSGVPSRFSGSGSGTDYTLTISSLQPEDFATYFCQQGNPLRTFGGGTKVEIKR is ____.
0.0274

Which measured EC50 value corresponds to humanized anti-tail monoclonal antibody, heavy chain SEQ ID NO: 5 and light chain SEQ ID NO: 12 (antibody, V domains shown, also called H10214 (11E7.C7 Humanized HC2) + L10215 (11E7.C7 Humanized LC3)) VH: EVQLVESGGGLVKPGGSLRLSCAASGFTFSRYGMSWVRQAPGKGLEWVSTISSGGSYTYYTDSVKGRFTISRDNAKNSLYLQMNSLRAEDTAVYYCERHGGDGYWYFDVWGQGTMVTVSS VL: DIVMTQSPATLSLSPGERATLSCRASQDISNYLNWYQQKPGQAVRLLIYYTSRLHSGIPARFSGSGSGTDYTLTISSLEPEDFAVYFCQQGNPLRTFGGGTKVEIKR ?
0.0429

Recorded EC50 of humanized anti-tail monoclonal antibody, heavy chain SEQ ID NO: 5 and light chain SEQ ID NO: 11 (antibody, V domains shown, also called H10214 (11E7.C7 Humanized HC2) + L10214 (11E7.C7 Humanized LC2)) VH: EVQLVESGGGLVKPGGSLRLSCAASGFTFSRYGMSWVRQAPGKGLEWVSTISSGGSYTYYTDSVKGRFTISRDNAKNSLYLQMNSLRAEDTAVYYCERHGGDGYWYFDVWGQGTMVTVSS VL: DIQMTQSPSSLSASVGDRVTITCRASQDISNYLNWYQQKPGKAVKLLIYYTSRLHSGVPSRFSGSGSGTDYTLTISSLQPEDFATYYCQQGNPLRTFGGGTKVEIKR , please.
0.0339
